// provenance: ChEMBL document CHEMBL3286359

Target: UniProt P31421
Assay: Inhibition of rat mGlu2 receptor transfected in HEK293 cells coexpressing mouse Galpha15 assessed as decrease in glutamate-induced calcium signaling by fluorescence plate reader analysis in presence of glutamate at EC76 concentration
reported endpoint: pIC50
Just so you know, pIC50 here is -log10 of the concentration in molar units; reply with that number alone.

INSERT INTO assay_data (structure, reported_endpoint, experimental_value) VALUES
  ('Cn1c(=O)c2ccc(-c3cccnc3)cc2n2nc(-c3ccc(F)cc3)cc12', 'pIC50', 6.37),
  ('Cn1c(=O)c2ccc(-c3cccnc3)cc2n2nc(-c3ccccc3)cc12', 'pIC50', 6.07),
  ('COc1cccc(-c2cc3n(C)c(=O)c4ccc(-c5cccnc5)cc4n3n2)c1', 'pIC50', 5.51),
  ('O=c1c2ccc(-c3cccnc3)cc2n2nc(-c3ccccc3)cc2n1CCO', 'pIC50', 5.33);

IN: Write down pIC50 measured for item Cn1c(=O)c2ccc(-c3cncnc3)cc2n2nc(-c3ccccc3)cc12
OUT: 6.61

---

Target: Metabotropic glutamate receptor 3 (Rattus norvegicus) (UniProt P31422)
Test: Inhibition of rat mGlu3 receptor transfected in HEK293 cells coexpressing mouse Galpha15 assessed as decrease in glutamate-induced calcium signaling at 3 uM by fluorescence plate reader analysis in presence of glutamate at EC87 concentration
Format: functional, cell-based
inhibition values for the compounds below.
Use % as the unit, but write only the number.

INSERT INTO measurements (structure, target_of_assay, experimental_value) VALUES
  ('COc1ccc(-c2ccc3c(=O)n(C)c4cc(-c5ccc(Cl)cc5)nn4c3c2)cc1', 'Metabotropic glutamate receptor 3 (Rattus norvegicus) (UniProt P31422)', 21),
  ('Cc1ccc2c(=O)n(C)c3cc(-c4cccc(F)c4)nn3c2c1', 'Metabotropic glutamate receptor 3 (Rattus norvegicus) (UniProt P31422)', 38),
  ('Cn1c(=O)c2ccc(-c3ccccc3)cc2n2nc(-c3ccc(Cl)cc3)cc12', 'Metabotropic glutamate receptor 3 (Rattus norvegicus) (UniProt P31422)', 31),
  ('Cc1ccc2c(=O)n(C)c3cc(-c4ccccc4)nn3c2c1', 'Metabotropic glutamate receptor 3 (Rattus norvegicus) (UniProt P31422)', 59);

IN: Write down inhibition measured for item Cc1ccc2c(=O)n(C)c3cc(-c4ccc(Cl)cc4)nn3c2c1
OUT: 33

IN: Write down inhibition measured for item COc1ccc(-c2ccc3c(=O)n(C)c4cc(-c5cccc(OC)c5)nn4c3c2)cc1
OUT: 48

IN: Write down inhibition measured for item Cc1cccc(-c2cc3n(C)c(=O)c4ccc(-c5ccccc5)cc4n3n2)c1
OUT: 49

IN: Write down inhibition measured for item COc1ccc(-c2ccc3c(=O)n(C)c4cc(-c5cccc(Cl)c5)nn4c3c2)cc1
OUT: 31

IN: Write down inhibition measured for item CC(=O)n1c(=O)c2ccc(-c3ccccc3)cc2n2nc(-c3ccccc3)cc12
OUT: 8

IN: Write down inhibition measured for item COc1ccc(-c2ccc3c(=O)n(C)c4cc(-c5ccccc5)nn4c3c2)cc1
OUT: 0

---

Target: Metabotropic glutamate receptor 2 (Rattus norvegicus)
Experiment: Inhibition of rat mGlu2 receptor transfected in HEK293 cells coexpressing mouse Galpha15 assessed as decrease in glutamate-induced calcium signaling by fluorescence plate reader analysis in presence of glutamate at EC76 concentration
reported endpoint: pIC50
Just so you know, pIC50 here is -log10 of the concentration in molar units; reply with that number alone.

IN: Write down pIC50 measured for item Cn1c(=O)c2ccc(-c3cccnc3)cc2n2nc(-c3cccc(Cl)c3)cc12
OUT: 6.25

IN: Write down pIC50 measured for item Cn1c(=O)c2ccc(-c3cccnc3)cc2n2nc(-c3ccc(Cl)cc3)cc12
OUT: 5.95

IN: Write down pIC50 measured for item Cn1c(=O)c2ccc(-c3cccnc3)cc2n2nc(-c3cccc(F)c3)cc12
OUT: 5.81

---

Target: Metabotropic glutamate receptor 2 (Rattus norvegicus) (UniProt P31421)
Sequence (P31421 19-872 limits assumed): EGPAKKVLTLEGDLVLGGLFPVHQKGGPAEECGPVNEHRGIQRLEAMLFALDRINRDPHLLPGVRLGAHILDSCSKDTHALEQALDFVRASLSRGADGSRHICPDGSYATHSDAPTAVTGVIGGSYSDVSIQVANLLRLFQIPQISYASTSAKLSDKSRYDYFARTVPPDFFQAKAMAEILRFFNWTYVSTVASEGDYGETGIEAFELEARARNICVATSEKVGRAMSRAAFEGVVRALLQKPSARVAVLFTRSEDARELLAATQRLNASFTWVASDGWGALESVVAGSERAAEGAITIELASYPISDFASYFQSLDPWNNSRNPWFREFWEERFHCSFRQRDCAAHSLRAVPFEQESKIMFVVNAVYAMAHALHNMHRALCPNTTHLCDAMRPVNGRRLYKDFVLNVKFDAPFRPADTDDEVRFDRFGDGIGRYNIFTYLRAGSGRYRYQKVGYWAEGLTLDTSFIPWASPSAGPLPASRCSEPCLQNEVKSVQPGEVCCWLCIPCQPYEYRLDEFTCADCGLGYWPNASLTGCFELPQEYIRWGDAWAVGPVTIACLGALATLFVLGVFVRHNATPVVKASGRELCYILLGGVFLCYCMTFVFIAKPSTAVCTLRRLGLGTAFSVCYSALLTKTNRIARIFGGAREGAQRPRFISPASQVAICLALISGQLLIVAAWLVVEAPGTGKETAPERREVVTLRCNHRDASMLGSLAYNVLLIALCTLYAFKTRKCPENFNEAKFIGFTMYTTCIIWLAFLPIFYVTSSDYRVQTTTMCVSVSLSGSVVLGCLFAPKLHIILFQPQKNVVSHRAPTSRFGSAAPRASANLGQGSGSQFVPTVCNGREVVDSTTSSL
Test: Positive allosteric modulatory activity at rat mGlu2 receptor transfected in HEK293 cells co-expressing mouse Galpha15 assessed as potentiation of glutamate-dependent calcium signaling at 3 uM by fluorescence plate reader analysis in presence of glutamate at EC20 concentration
Format: functional, cell-based
Calls of active or inactive are those of the source. The calls are words filed in the database; no cut-off is given here.
reported endpoint: Activity

Here's what some known entries look like.
INSERT INTO assay_data (structure, experimental_value) VALUES
  ('Cc1cccc(-c2cc3n(C)c(=O)c4ccc(-c5cccnc5)cc4n3n2)c1', 'inactive'),
  ('Cn1c(=O)c2ccc(-c3cccnc3)cc2n2nc(-c3cccc(Cl)c3)cc12', 'inactive'),
  ('COc1ccc(-c2ccc3c(=O)n(C)c4cc(-c5cccc(Br)c5)nn4c3c2)cc1', 'inactive'),
  ('Cc1ccc2c(=O)n(C)c3cc(-c4ccc(Cl)cc4)nn3c2c1', 'inactive');

IN: Write down Activity measured for item Cn1c(=O)c2ccc(-c3ccccc3)cc2n2nc(-c3cccc(Cl)c3)cc12
OUT: inactive

IN: Write down Activity measured for item Cn1c(=O)c2ccc(-c3cccnc3)cc2n2nc(-c3cccc(F)c3)cc12
OUT: inactive

IN: Write down Activity measured for item COc1ccc(-c2ccc3c(=O)n(C)c4cc(-c5cccc(F)c5)nn4c3c2)cc1
OUT: inactive

---

Target: Metabotropic glutamate receptor 2 (Rattus norvegicus, UniProt P31421)
Sequence (P31421 whole entry): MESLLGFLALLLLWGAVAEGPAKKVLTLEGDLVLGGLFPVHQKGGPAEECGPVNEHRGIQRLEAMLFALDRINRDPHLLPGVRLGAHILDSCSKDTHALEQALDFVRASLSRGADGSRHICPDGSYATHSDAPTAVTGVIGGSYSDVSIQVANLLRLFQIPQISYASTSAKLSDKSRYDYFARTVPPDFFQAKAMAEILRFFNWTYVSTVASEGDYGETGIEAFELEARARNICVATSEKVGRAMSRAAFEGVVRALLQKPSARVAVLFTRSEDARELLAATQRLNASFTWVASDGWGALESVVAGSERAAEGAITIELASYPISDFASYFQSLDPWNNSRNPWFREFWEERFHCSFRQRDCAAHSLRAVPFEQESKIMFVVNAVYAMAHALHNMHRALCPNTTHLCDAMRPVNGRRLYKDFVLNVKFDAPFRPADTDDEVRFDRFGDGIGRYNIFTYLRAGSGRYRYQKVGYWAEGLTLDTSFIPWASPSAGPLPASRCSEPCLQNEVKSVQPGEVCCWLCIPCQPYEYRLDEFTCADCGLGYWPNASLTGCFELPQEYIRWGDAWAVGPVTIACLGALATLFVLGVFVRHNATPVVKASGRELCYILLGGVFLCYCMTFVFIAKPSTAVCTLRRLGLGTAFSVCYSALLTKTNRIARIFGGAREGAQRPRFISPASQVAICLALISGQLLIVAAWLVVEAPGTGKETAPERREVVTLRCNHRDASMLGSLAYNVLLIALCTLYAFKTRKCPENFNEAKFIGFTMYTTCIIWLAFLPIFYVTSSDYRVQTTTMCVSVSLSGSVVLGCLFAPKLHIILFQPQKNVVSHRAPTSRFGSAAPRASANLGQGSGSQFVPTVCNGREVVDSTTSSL
Test: Inhibition of rat mGlu2 receptor transfected in HEK293 cells coexpressing mouse Galpha15 assessed as decrease in glutamate-induced calcium signaling by fluorescence plate reader analysis in presence of glutamate at EC76 concentration
pIC50: −log10 of the molar value.
reported endpoint: pIC50

INSERT INTO results (structure, target_of_assay, experimental_value) VALUES
  ('Cn1c(=O)c2ccc(-c3ccncc3)cc2n2nc(-c3ccccc3)cc12', 'Metabotropic glutamate receptor 2 (Rattus norvegicus, UniProt P31421)', 5.75),
  ('CC(=O)n1c(=O)c2ccc(-c3cccnc3)cc2n2nc(-c3ccccc3)cc12', 'Metabotropic glutamate receptor 2 (Rattus norvegicus, UniProt P31421)', '< 5.00');

IN: Write down pIC50 measured for item COc1cccc(-c2cc3n(C)c(=O)c4ccc(C)cc4n3n2)c1
OUT: < 5.00

---

Molecular target: Metabotropic glutamate receptor 3 (Rattus norvegicus)
Sequence (P31422 whole entry): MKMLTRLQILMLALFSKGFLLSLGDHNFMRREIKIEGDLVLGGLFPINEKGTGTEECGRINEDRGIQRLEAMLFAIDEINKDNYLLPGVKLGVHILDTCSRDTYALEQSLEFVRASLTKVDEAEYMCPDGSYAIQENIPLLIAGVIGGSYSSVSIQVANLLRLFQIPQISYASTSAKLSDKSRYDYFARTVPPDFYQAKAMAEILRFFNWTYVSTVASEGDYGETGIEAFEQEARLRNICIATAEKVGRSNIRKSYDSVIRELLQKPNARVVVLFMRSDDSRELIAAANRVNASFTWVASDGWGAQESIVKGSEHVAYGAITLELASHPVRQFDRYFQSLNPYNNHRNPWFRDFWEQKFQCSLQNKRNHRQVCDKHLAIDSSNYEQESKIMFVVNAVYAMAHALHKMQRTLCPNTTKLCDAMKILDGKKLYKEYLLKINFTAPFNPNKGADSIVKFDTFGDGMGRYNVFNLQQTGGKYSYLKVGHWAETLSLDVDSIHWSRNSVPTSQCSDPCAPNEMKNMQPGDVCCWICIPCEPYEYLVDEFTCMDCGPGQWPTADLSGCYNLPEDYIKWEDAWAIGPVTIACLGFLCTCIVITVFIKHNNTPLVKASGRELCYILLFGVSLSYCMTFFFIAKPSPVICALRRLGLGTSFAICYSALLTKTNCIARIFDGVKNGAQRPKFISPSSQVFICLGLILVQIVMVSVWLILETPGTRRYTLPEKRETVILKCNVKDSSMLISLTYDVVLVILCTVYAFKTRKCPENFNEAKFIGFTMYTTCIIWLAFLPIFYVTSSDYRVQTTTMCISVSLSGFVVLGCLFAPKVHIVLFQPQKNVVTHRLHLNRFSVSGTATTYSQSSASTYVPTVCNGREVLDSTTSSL
Test: Inhibition of rat mGlu3 receptor transfected in HEK293 cells coexpressing mouse Galpha15 assessed as decrease in glutamate-induced calcium signaling by fluorescence plate reader analysis in presence of glutamate at EC87 concentration
IC50 values for the compounds below.
Use nM as the unit, but write only the number.

Here's what some known entries look like.
INSERT INTO assay_data (structure, reported_endpoint, unit_label, experimental_value) VALUES
  ('COc1cccc(-c2cc3n(C)c(=O)c4ccc(-c5cccnc5)cc4n3n2)c1', 'IC50', 'nM', 1180),
  ('Cn1c(=O)c2ccc(-c3cccnc3)cc2n2nc(-c3cccc(Cl)c3)cc12', 'IC50', 'nM', 293),
  ('Cn1c(=O)c2ccc(-c3cccnc3)cc2n2nc(-c3cccc(F)c3)cc12', 'IC50', 'nM', 247),
  ('Cn1c(=O)c2ccc(-c3cccnc3)cc2n2nc(-c3ccc(F)cc3)cc12', 'IC50', 'nM', 67),
  ('COc1cccc(-c2cc3n(C)c(=O)c4ccc(-c5cccc(S(N)(=O)=O)c5)cc4n3n2)c1', 'IC50', 'nM', 696);

IN: Please report IC50 with Metabotropic glutamate receptor 3 (Rattus norvegicus) for item Cn1c(=O)c2ccc(-c3cccc(S(N)(=O)=O)c3)cc2n2nc(-c3ccc(Cl)cc3)cc12 .
OUT: 1250

IN: Please report IC50 with Metabotropic glutamate receptor 3 (Rattus norvegicus) for item O=c1c2ccc(-c3cccnc3)cc2n2nc(-c3ccccc3)cc2n1CCO .
OUT: 3150

---

Molecular target: Metabotropic glutamate receptor 3 (Rattus norvegicus)
Experiment: Inhibition of rat mGlu3 receptor transfected in HEK293 cells coexpressing mouse Galpha15 assessed as decrease in glutamate-induced calcium signaling by fluorescence plate reader analysis in presence of glutamate at EC87 concentration
reported endpoint: IC50

INSERT INTO results (structure, reported_endpoint, experimental_value) VALUES
  ('Cn1c(=O)c2ccc(-c3cccnc3)cc2n2nc(-c3cccc(Br)c3)cc12', 'IC50', '> 10 µM'),
  ('COc1ccc(-c2ccc3c(=O)n(C)c4cc(-c5ccc(F)cc5)nn4c3c2)cc1', 'IC50', '> 10 µM'),
  ('COc1cccc(-c2cc3n(C)c(=O)c4ccc(C)cc4n3n2)c1', 'IC50', '> 10 µM'),
  ('Cn1c(=O)c2ccc(-c3ccc4cn[nH]c4c3)cc2n2nc(-c3ccccc3)cc12', 'IC50', '> 10 µM'),
  ('CC(=O)n1c(=O)c2ccc(-c3cccnc3)cc2n2nc(-c3ccccc3)cc12', 'IC50', '> 10 µM');

Attention now shifts to the item below.
IN: Please report IC50 with Metabotropic glutamate receptor 3 (Rattus norvegicus) for item Cn1c(=O)c2ccc(-c3ccccc3)cc2n2nc(-c3ccccc3)cc12 .
OUT: > 10 µM
